Reference source for all entries: patent US9955691B2

Tested on: Mycosphaerella graminicola; Anamorph: Septoria tritici
PROCEDURE SUMMARY: Fungicidal activity: Leaf Blotch of Wheat (SEPTTR)
Assay type: in vivo
CONDITION INFO: Zymoseptoria tritici, 24 h; High Volume (100 ppm), 1 Day Protectant, wheat leaf blotch; read-out: SEPTTR 1 DP disease control
Provide the reported pest or weed control at 100 µg/mL of each item.

- SUBSTANCE SMILES: "CCCC[C@@H]1[C@@H](Cc2ccccc2)COC[C@H](NC(=O)c2nccc(OC)c2OC(C)=O)C(=O)O[C@H]1C"
  MEASURE: "pest or weed control at 100 µg/mL"
  REPORTED: "> 70%"
- SUBSTANCE SMILES: "CCCC[C@@H]1[C@@H](Cc2ccccc2)COC[C@H](NC(=O)c2nccc(OC)c2O)C(=O)O[C@H]1C"
  MEASURE: "pest or weed control at 100 µg/mL"
  REPORTED: "> 70%"
- SUBSTANCE SMILES: "COc1ccnc(C(=O)N[C@H]2COC[C@H](Cc3ccc(C(F)(F)F)cc3)[C@@H](Cc3ccccc3)[C@H](C)OC2=O)c1O"
  MEASURE: "pest or weed control at 100 µg/mL"
  REPORTED: "> 70%"
- SUBSTANCE SMILES: "COc1ccnc(C(=O)N[C@H]2COC[C@H](c3ccccc3)[C@@H](c3ccccc3)[C@H](C)OC2=O)c1O"
  MEASURE: "pest or weed control at 100 µg/mL"
  REPORTED: "> 70%"
- SUBSTANCE SMILES: "COc1ccnc(C(=O)N[C@H]2COC[C@H](CC3CC3)[C@@H](Cc3ccccc3)[C@H](C)OC2=O)c1O"
  MEASURE: "pest or weed control at 100 µg/mL"
  REPORTED: "> 70%"
- SUBSTANCE SMILES: "CCC[C@H]1COC[C@H](NC(=O)c2nccc(OC)c2O)C(=O)O[C@@H](C)[C@@H]1Cc1ccccc1"
  MEASURE: "pest or weed control at 100 µg/mL"
  REPORTED: "> 70%"

Look up pest or weed control at 100 µg/mL: COc1ccnc(C(=O)N[C@H]2COC[C@@H]3CCCC[C@H]3[C@@H](C)OC2=O)c1OCOC(C)=O < 70%

====

Tested on: Mycosphaerella graminicola; Anamorph: Septoria tritici
PROCEDURE SUMMARY: Fungicidal activity: Leaf Blotch of Wheat (SEPTTR)
Format: in vivo
CONDITION INFO: Zymoseptoria tritici, 72 h; High Volume (100 ppm), 3 Day Curative, wheat leaf blotch; read-out: SEPTTR 3 DC disease control
MEASURE: pest or weed control at 100 µg/mL

- COMPOUND: "COc1ccnc(C(=O)N[C@H]2COC[C@H](Cc3ccccc3)[C@@H](COc3ccccc3)[C@H](C)OC2=O)c1O [compound 151]"
  MEASURE: "pest or weed control at 100 µg/mL"
  REPORTED: "> 70%"

Give me pest or weed control at 100 µg/mL for each of these compounds, listed below.
1. COc1ccnc(C(=O)N[C@H]2COC[C@H](CC3CCCCC3)[C@@H](CC3CCCCC3)[C@H](C)OC2=O)c1O [compound 119]
2. COc1ccnc(C(=O)N[C@H]2COC[C@H](Cc3ccc(Cl)cc3)[C@@H](C3CCCC3)[C@H](C)OC2=O)c1O [compound 149]
3. COc1ccnc(C(=O)N[C@H]2COC[C@H](c3ccccc3)[C@@H](c3ccccc3)[C@H](C)OC2=O)c1O [compound 116]

1: < 70%; 2: > 70%; 3: < 70%
